Test system: Vero (African green monkey kidney) cell line
Experiment: MTT cell viability assay, non-tumoral Vero cells
Settings: read-out: Cytotoxic activity IC50, Vero; MTT, 48 h incubation; mean ± SD of three independent experiments
Assay Readout: IC50

Using the record for CC1=C(CO)C(=O)OC(C(C)C2(O)CCC3C4CC(O)C56C=CC(OO5)C(=O)C6(C)C4CCC32C)C1 (stereo not shown) , report its IC50.
> 40 µM

* * *

Could you please report measured IC50 for the items listed next?
Tested on: HL-60 (human promyelocytic leukemia cell line)
Settings: 48 h
One number for each entry, in nM.

INSERT INTO results (compound, assay_readout, unit_descriptor, recorded_measurement) VALUES
  ('CC1=C(CO)C(=O)OC(C(C)C2(O)CCC3C4CC=C5C(O)C=CC(=O)C5(C)C4CCC32C)C1 (stereo not shown)', 'IC50', 'nM', 12300),
  ('CC1=C(CO)C(=O)O[C@@H]([C@@H](C)C2=CC[C@H]3[C@@H]4C[C@H]5O[C@]56[C@@H](O)C=CC(=O)[C@]6(C)[C@H]4CC[C@]23C)C1', 'IC50', 'nM', 500),
  ('CC(=O)OCC1=C(C)CC(C(C)C2CCC3C4CC5OC56C(O)C=CC(=O)C6(C)C4CCC23C)OC1=O (stereo not shown)', 'IC50', 'nM', 400);

Proceed to the following item.
Using the record for CC1=C(C)C(=O)OC(C(C)C2CCC3C4CC5OC56C(O)C=CC(=O)C6(C)C4CCC23C)C1 (stereo not shown) , report its IC50.
500

* * *

Experiment: MTT cell viability assay, non-tumoral Vero cells
Details: African green monkey, Vero cells (African green monkey kidney, non-tumoral)
Assay Readout: IC50 at 48 h

INSERT INTO measurements (compound, assay_readout, recorded_measurement) VALUES
  ('CC1=C(CO)C(=O)OC(C(C)C2(O)CCC3C4CC(O)C56C=CC(OO5)C(=O)C6(C)C4CCC32C)C1 (centres unmarked)', 'IC50 at 48 h', '> 40 µM');

Proceed to the following item.
Using the record for CC1=C(CO)C(=O)OC(C(C)C2CCC3C4CC(O)C5(C=O)C=CC(=O)C5(C)C4CCC23C)C1 (centres unmarked) , report its IC50 at 48 h.
> 40 µM

* * *

Test system: HL-60 (human promyelocytic leukemia cell line)
Test: MTT cell viability (antiproliferative) assay, HL-60
Settings: Vero (IC50) on HL-60 (IC50)
Assay Readout: SI (selectivity index)

Study these solved cases before continuing.
INSERT INTO results (compound, assay_readout, recorded_measurement) VALUES
  ('CC1=C(CO)C(=O)O[C@@H]([C@@H](C)C2=CC[C@H]3[C@@H]4C[C@H]5O[C@]56[C@@H](O)C=CC(=O)[C@]6(C)[C@H]4CC[C@]23C)C1', 'SI (selectivity index)', 3.8),
  ('CC1=C(CO)C(=O)OC(C(C)C2(O)CCC3C4CC5OC56C(O)C=CC(=O)C6(C)C4CCC32C)C1 (stereo not shown)', 'SI (selectivity index)', '>6.2'),
  ('CC1=C(CO)C(=O)OC(C(C)C2=CCC3C4CC(O)C56C=CC(OO5)C(=O)C6(C)C4CCC23C)C1 (stereo not shown)', 'SI (selectivity index)', 5.1);

Hey, quick one: what's SI (selectivity index) for each of these?
1. CC1=C(C)C(=O)OC(C(C)C2CC=C3C4CC5OC56C(O)C=CC(=O)C6(C)C4CCC32C)C1 (stereo not shown)
2. CC1=C(CO)C(=O)OC(C(C)C2=CCC3C4CC=C5C(=O)C=CC(=O)C5(C)C4CCC23C)C1 (stereo not shown)
3. CC1=C(CO)C(=O)OC(C(C)C2CCC3C4CC(O)C56C=CC(OO5)C(=O)C6(C)C4CCC23C)C1 (stereo not shown)
4. COc1cc([C@@H]2c3cc4c(cc3[C@@H](O[C@@H]3O[C@@H]5CO[C@@H](C)O[C@H]5[C@H](O)[C@H]3O)[C@H]3COC(=O)[C@H]23)OCO4)cc(OC)c1O [Etoposide, reference compound]

6.9
3.7
4.9
8.2

Hey, quick one: what's SI (selectivity index) for each of these?
1. CC1=C(C)C(=O)OC(C(C)C2=CCC3C4CC5OC56C(O)C=CC(=O)C6(C)C4CCC23C)C1 (stereo not shown)
2. CC1=C(CO)C(=O)OC(C(C)C2(O)CCC3C4CC(O)C56C=CC(OO5)C(=O)C6(C)C4CCC32C)C1 (stereo not shown) [Compound 1]
3. CC1=C(CO)C(=O)OC(C(C)C2=CCC3C4CC=C5C(O)C=CC(=O)C5(C)C4CCC23C)C1 (stereo not shown)

[2.2, ">3.1", 0.8]
